- Protocol Description: in vivo
- Setup Conditions: male, FVB, Cyp3aXAV, mouse, po, 10 mg/kg, Tmax
Quantity Name: Tmax

- Compound: "CC(C)c1nc(CN(C)C(=O)N[C@H](C(=O)N[C@@H](Cc2ccccc2)C[C@H](O)[C@H](Cc2ccccc2)NC(=O)OCc2cncs2)C(C)C)cs1 [ritonavir]"
  Measured: "15 min"

====

- Protocol Description: Plasma pharmacokinetics and tissue distribution 2 h after oral cabazitaxel 10 mg/kg with vehicle or 25 mg/kg ritonavir in wild-type, Oatp1a/1b−/−, Oatp1a/1b/2b1−/−, OATP1B1- and OATP1B3-transgenic mice
- Type: in vivo
- Setup Conditions: male, FVB, mouse, brain/plasma, po, Oatp1a/1b/2b1−/− mice; ritonavir 25 mg/kg oral; cabazitaxel 10 mg/kg oral; 2 h; read-out: Brain-to-plasma ratio
Quantity Name: Kp at 2 h

- Molecule Smiles: "CO[C@H]1C(=O)[C@]2(C)[C@@H](OC)C[C@H]3OC[C@@]3(OC(C)=O)[C@H]2[C@H](OC(=O)c2ccccc2)[C@]2(O)C[C@H](OC(=O)[C@H](O)[C@@H](NC(=O)OC(C)(C)C)c3ccccc3)C(C)=C1C2(C)C"
  Measured: 0.047
